# System: SNB-19
# EXPERIMENTAL DETAILS: NCI tumour cell line growth inhibition, 48 h
Activity calls are given as the source filed them. No stated cut-off is given here; in the data, active = GI50 up to about 1.1 µM and inactive = higher.
MEASUREMENT TYPE: GI50

1) CSc1cccc(NC(=O)OC2CCCCCCCCCCC2)c1: 37.5 µM (inactive)

GET /value?item= "CC1=C(C(=O)N(C(C)C)C(C)C)CC(C(=O)N(C(C)C)C(C)C)=C(C)N1" &field=GI50 returns > 100 µM (inactive)

GI50 for "CC1(C)CC(=O)C(/C(=N/NC(=S)NN)C(=O)Nc2nc3ccc([N+](=O)[O-])cc3s2)C(=O)C1" is > 100 µM (inactive)

GI50 measured on CN(C)c1cccc2c1C(=O)C=CC21c2ccc(N(C)C)c3c(N(C)C)ccc(c23)C(c2ccccc2)C1c1ccccc1 (stereo not drawn) = 16.3 µM (inactive)

----------
# System: MDA-MB-435
# EXPERIMENTAL DETAILS: NCI tumour cell line growth inhibition, 48 h
Activity calls are given as the source filed them. Rule as the data show it: active = GI50 up to about 1.1 µM and inactive = higher.
MEASUREMENT TYPE: GI50

1. CSc1cccc(NC(=O)OC2CCCCCCCCCCC2)c1: 15.7 µM (inactive)
2. COc1cc2oc(=O)cc(C)c2c(OC)c1OC: > 100 µM (inactive)

Form field GI50, entry "COc1cc2nc(-c3cccs3)nc(Nc3ccccc3C(=O)NN)c2cc1OC" : 95.7 µM (inactive)

Looking up "COc1cc(C[C@@H](C)N)cc(OC)c1" , I found its GI50 recorded as > 100 µM (inactive)

The compound listed as Cc1ccc(S(=O)(=O)C2=Cc3ccccc3C2(O)c2ccccc2)cc1 (stereo unspecified) shows GI50 equal to 30.8 µM (inactive)

Input O=C1OC(=O)C2CCCC3CCCC1C32 (stereo unspecified) . Output GI50: > 100 µM (inactive)

----------
# Tested on: OVCAR-4
# EXPERIMENTAL DETAILS: NCI tumour cell line growth inhibition, 48 h
Activity calls are given as the source filed them. Rule as the data show it: active = GI50 up to about 1.1 µM and inactive = higher.
Return exactly one item of YES (active), NO (inactive)

Record excerpt, results attached:
1. CC1(O)CCC(C(C)(C)O)CC1 (stereo not given) [TERPIN]: NO
2. N#Cc1nc(C2=C(Cl)c3ccccc3OC2)[nH]c1C#N: NO
3. CCOC(=O)/C=C(\C(=O)OCC)n1ccc(=O)n(CC(=O)OCC)c1=O: NO
4. COc1cc2c3c(c4cc(OC)c(OC)cc4c2cc1OC)C(=O)C1CCC(=O)N1C3 (stereo not given): NO

Q) Lab log entry: Nc1cc2c(c3ccccc13)C(CCl)CN2C(=O)c1cc2cc(NC(=O)Nc3ccc4[nH]c(C(=O)N5CC(CCl)c6c5cc(N)c5ccccc65)cc4c3)ccc2[nH]1 (stereo not given) — outcome as called in the assay?
A) NO

Q) I'd appreciate the recorded outcome for "CCCCN1C(=O)CS/C1=N/Nc1nc2c([nH]1)c(=O)n(C)c(=O)n2C" from this test.
A) NO

Q) Field: outcome | Entry: "CN(C)CCNc1c2ccccc2c2c3c(cccc13)C(=O)N(CCN(C)C)C2=O"
A) YES

Q) Write down the call the test reported for this molecule. Item: "Cc1c2ccccc2cc2ccc3oc([N+](=O)[O-])cc3c12"
A) NO

Q) What outcome does the record of this test show for "Cc1ccccc1NC(=O)c1cc(-c2ccc([N+](=O)[O-])cc2)nc(S)n1" ?
A) NO

Q) What was the test verdict on Cc1ccc2c(c1)C(=O)C1(C2)Cc2cccc(C)c2C1=O (stereo not given) ?
A) NO
